# Target Of Assay: T1, PSMA Fab (biotinylated (site not stated))
# T1 construct: Biotinylated PSMA Fab captured on neutravidin plates in the phage ELISA; also called Anti-PSMA Fab; 006 PSMA Fab
# Test Description: phage ELISA; PSMA Fab-coated wells pre-incubated with PSMA antigen as competitor, anti-M13-HRP detection
Where no end group is shown, it is not given here.
Mark true only when Phage binding ELISA signal, Anti-PSMA Fab with PSMA antigen stays strictly below 0.1. Values equal to the cut-off are false.

**Query** Check if Phage binding ELISA signal, Anti-PSMA Fab with PSMA antigen falls below 0.1 for VLKWCTPAWMCTGF [Phage-2557] .
**Result** true

**Query** Another: PLKWCIPQWMCTEA [Phage-2544]
**Result** true

**Query** Another: VQKWCIPPWMCTHI [Phage-2549]
**Result** true

**Query** Another: TQKLCIPEWMCEAM [Phage-2555]
**Result** true

**Query** Another: SEHWCIPQWMCQSV (cysteine pairing not given here; also: fused to phage pIII, linker and fusion site not given here) [Phage-2543]
**Result** false
